# Target Entity: Neu5Ac(a2-3)GalNAc(b1-4)GlcNAc
# Experiment Summary: glycan array binding signal (z-score within array); higher = stronger binding
# Condition Details: glycan notation: IUPAC condensed, linker removed
The entries come from a sample that favours the strongest signals as a whole.
glycan array binding signal (z-score) vs -0.2: at or above is rule met, below is rule not met.

Example results:
{"columns": ["Binder", "Group"],
 "data": [
  ["Tap1 (Sordaria macrospora), Q50IV4 (protein) MSHHHHHHHHYTLHLRLINDTSDTLTLVEQTSWWGKNTIWSQVRSTGVHVLSMAASGSSGMLRFQTSKGDFFAVAVGVHNYKRWCDVLVDTADEAPLTKLHPKYYDDKDAKYQALWAQASEFEAKSKSGKTVRIKFYQADGNVLRATVEYL", "rule not met"],
  ["TIM-1 (Mus musculus), AAL35774 (protein) MNQIQVFISGLILLLPGAVDSYVEVKGVVGHPVTLPCTYSTYRGITTTCWGRGQCPSSACQNTLIWTNGHRVTYQKSSRYNLKGHISEGDVSLTIENSVESDSGLYCCRVEIPGWFNDQKVTFSLQVKPEIPTRPPTRPTTTRPTATGRPTTISTRSTHVPTSIRVSTSTPPTSTHTWTHKPEPTTFCPHETTAEVTGIPSHTPTDWNGTVTSSGDTWSNHTEAIPPGKPQKNPTKGFYVGICIAALLLLLLVSTVAITRYILMKRKSASLSVVAFRVSKIEALQNAAVVHSRAEDNIYIVEDRP", "rule not met"],
  ["PpFlo2 (Pichia pastoris) (protein) MGSSHHHHHHSSGLVPRGSHMDDSGNGDNSDTAYGCDITTNAVDGFDATIYQYNANDLRLIRDPTFMSTGYLGRNVLNKISGVTVPGFNIWNPSSRTATVYGVKNVNYYNMVLELKGYFKADVSGDYKLTLSHIDDSSMLFFGKETAFKCCDAGSIPLNEAPTDYSLFTIKPSNQVNSEVISATQYLEAGKYYPVRIVFVNALERARFDFKLTIPSGAVLDDFQNYIYQFGDLDENSCHE", "rule not met"],
  ["SLR2P3F12 (Tachypleus tridentatus), TAL2_TACTR (protein) MEKGTPPTHDSDNWMGRAKKIGNGGWNQFQFLFFDPNGYLYAVSKDKLYKASPPQSDTDNWIARATEIGSGGWSGFKSLFFHPNGYLYAVHGQRLYKALPPVSNQD", "rule met"],
  ["ABA (Agaricus bisporus), Q00022 (protein) MTYTISIRVYQTTPKGFFRPVERTNWKYANGGTWDEVRGEYVLTMGGSGTSGSLRFVSSDTDESFVATFGVHNYKRWCDIVTNLTNEQTALVINQEYYGVPIRDQARENQLTSYNVANAKGRRFAIEYTVTEGDNLKANLIIG", "rule not met"],
  ["MAL (Maackia amurensis) (protein) SDELSFTINNFMPNQGDLLFQGVATVSPTGVLQLTSEENGQPLEYSVGRVLYTAPVRIWDSTTGAVASFSTSFTFVVKAARGASDGLAFFLAPPDSQIPSGSVSKYLGLFNNSNSDSSNQIVAVEFDTYFGHSYDPWDPNYRHIGIDVNGIESIKTVQWDWINGGVAFATITYLAPNKTLIASLVYPSNQTSFIVAASVDLKEILPEWVRVGFSAATGAPKAVETHDVRSWSFTSTLEANSPADVDN", "rule not met"]
]}

Exercise: Does glycan array binding signal (z-score) meet or surpass -0.2 for LcH (Lens culinaris), P02870 (protein) TETTSFSITKFSPDQQNLIFQGDGYTGKEGLTLTKVSKETGGRALYSTPIHIWDRDTVNVANFVTNGSQVFRESPNGYNVADGFTFFIAPVDTKPQTGGGYLGVFYNGKEYDKTSQTVAVEFDTFYNAAWDPSNKERHIGIDVNSIKSVNTKSWNLQNGVTSYTLNEVVPLKDVVPEWVRIGFSATTGAEFAAQEVHSWSFNSQLGHTSKS ?
Solution: rule met

Exercise: Check the entry HFR-3 (Triticum aestivum) (protein) MKGLLLCALALAFAAVTTHAQLQSCPTRCGKQADGMECPNNLCCSKDGYCGLGVDYCSAGAGCQSGACYDNKICGAQANGTLCRNNHCCSSGGRCGYGREYCSNGCQGGPCWADLKCGHLDNGKLCPNNLCCSQYGYCGLGPEFCGTGCQNGACSTDKPCGNKANGAPCTNNYCCSQYGSCGLGKDYCGTGCQNGACN : does glycan array binding signal (z-score) equal or exceed -0.2?
Solution: rule met

Exercise: Check this binder for glycan array binding signal (z-score) at or above -0.2: EPL1 (Trichoderma atroviride), A0PCX2 (protein) MQLSNLFKLALFTAAVSADTVSYDTGYDDASRSLTVVSCSDGTNGLITRYHWQTQGQIPRFPYIGGAQAVAGWNSPNCGTCWKLTYSGKTIYVLAIDHTAAGFNIGLDAMNALTNGNAVALGRVSATASQVAVSNCGL
Solution: rule not met

Exercise: Entry R410P1E11 (Tachypleus tridentatus), TAL2_TACTR (protein) MEKGTPPTHDSDNWMGRAKEIGNGGWDQFQFLFFDPNGYLYAVSNDKLYKASPPQSDTDNWIARATEIGSGGWSGFKFLFFHPNGYLYAVRGQRFYKALPPVSNQD : is its glycan array binding signal (z-score) no less than -0.2?
Solution: rule met

Exercise: Check if glycan array binding signal (z-score) >= -0.2 (inclusive). Item: EULS2 M4 (Oryza sativa) (protein) MVYCRANPNYAMTARNGAVVLAPANPKDEYQHWIKDMRWSTSIKDEEGYPAFALVNKATGQAIKHSLGQSHPVRLVPYNPEVMDESVLWTESRDVGNGFRCIRMVNNIYLNFDAFHGDKYHGGVRDGTDIVLWKWCEGDSLRWKIQPYYILEQKLISEEDLNSAVDHHHHHH
Solution: rule met

Exercise: Test whether the binder STA (Solanum tuberosum), Q9S8M0 (protein) NASPPSPSPLPYPQCGMKKGGGKCIKTGECCSIWGWCGTTNAYCSPGYCQKQCPGPYPEGRCGWQANGKSCPTGTGQCCSNGGWCGTTSDYCASKNCQSQCKLPSPPPPPPPPSPPPPSPPSPPPPSPPPPPPPSPPPPSPPPPSPSPPPPPASPPPPPPALPYPQCGIKKGGGKCIKTGECCSIWGWCGTTNAYCSPGYCQKQCPGPYPEGRCGWQANGKSCPTGTGHCCSNAGWCGTTSDYCAPVNCQAQCNTTTLTSPIKNRMRGIESFMLNVV records glycan array binding signal (z-score) of -0.2 or higher.
Solution: rule met

Exercise: Kindly determine if glycan array binding signal (z-score) recorded for CD83 (Homo sapiens) (protein) MSRGLQLLLLSCAYSLAPATPEVKVACSEDVDLPCTAPWDPQVPYTVSWVKLLEGGEERMETPQEDHLRGQHYHQKGQNGSFDAPNERPYSLKIRNTTSCNSGTYRCTLQDPDGQRNLSGKVILRVTGCPAQRKEETFKKYRAETSEQKLISEEDLSRGSDDDDKAEPRGP is above or exactly -0.2.
Solution: rule not met

Each recorded value in this set is attributed to the supplement of paper PMC8728848.
